Listing: solubility kinetic of selected compounds
test parameters: buffer; pH 7.4; 200.0 µM

{"compound": "CCOC(=O)c1c(O)c(Cl)c(C)[nH]c1=O", "observable": "solubility kinetic", "result": "> 34.7 µg/mL"}
{"compound": "O=S(=O)(NCCN1CCOCC1)c1ccc2ccccc2c1", "observable": "solubility kinetic", "result": "> 48.1 µg/mL"}
{"compound": "COc1cccc(CNC(=O)CCNC(=O)c2ccccc2OC)c1", "observable": "solubility kinetic", "result": "> 51.4 µg/mL"}

As a next step, examine the compound that follows.
I have this compound here, N#Cc1cnn2cc(CCN3CCOCC3)c(-c3ccc(F)cc3)nc12 , and I need its recorded solubility kinetic.
> 52.7 µg/mL

* * *

test parameters: buffer; pH 7.4; 200.0 µM
observable: solubility kinetic

Below: 3 compounds and their reported solubility kinetic.
{"compound": "O=[N+]([O-])c1ccccc1OC/C(=N\\O)c1ccccc1", "result": "> 40.8 µg/mL"}
{"compound": "O=C(Nc1cccc2ccccc12)N1CCN(c2ncccn2)CC1", "result": "> 50 µg/mL"}
{"compound": "CCC(C)(C)NC(=O)C1CC(=O)N(CCc2ccc(F)cc2)C1 (centres undefined)", "result": "> 48.1 µg/mL"}

# solubility kinetic lookup, item Cc1ccc(C(=O)NC(=O)CSc2nncn2C)cc1
> 43.6 µg/mL

Which solubility kinetic value is on record for CC(C)c1nc2sc3c(=O)[nH]cnc3c2c2c1CCCC2 ?
< 0.2 µg/mL

Endpoint output: solubility kinetic of O=C(O)C1CCC(N2C(=O)c3cccc([N+](=O)[O-])c3C2=O)CC1 (centres undefined) . Value?
> 47.7 µg/mL

* * *

Examples of compounds with documented solubility kinetic follow.
test parameters: buffer; pH 7.4; 200.0 µM
The response must be a number in µg/mL with no trailing unit.

// solved cases for solubility kinetic follow
{"compound": "COc1ccccc1NC(=O)C1CC(C(C)C)OC1=O (configuration not stated)", "observable": "solubility kinetic", "result number": 38.3}
{"compound": "CC1(C)C2CCC1(C)C(OC(=O)CNc1ccccc1)C2 (configuration not stated)", "observable": "solubility kinetic", "result number": 4.2}

Can you look up the measured solubility kinetic of O=C(Nc1ccc(S(=O)(=O)Nc2ccccc2)cc1)C1CC1 for me?
12.6

What does the data say about its solubility kinetic? Entry: CC1CC(C)CN(C(=O)/C=C/c2ccc([N+](=O)[O-])s2)C1 (configuration not stated)
5.8

Reported solubility kinetic, compound COc1ccccc1C(=O)N1CCN(C(=O)Cc2ccccc2)CC1 : ____
43.2

Dear colleague, I am looking for the recorded solubility kinetic of the following compound: Cc1cccc(NC(=S)N(CCc2ccncc2)C(C)C)c1C
32.5

* * *

test parameters: buffer; pH 7.4; 200.0 µM
observable: solubility kinetic

Example cases with answers are listed next.
{"molecule": "O=C(CCS(=O)(=O)c1ccccc1)Nc1nc(-c2ccc(F)cc2)cs1", "solubility kinetic": "< 0.4 µg/mL"}
{"molecule": "COC(=O)c1cc(CSC(=N)N)ccc1OCCC(C)C.Cl", "solubility kinetic": "> 52 µg/mL"}
{"molecule": "CC1CCCN(C(=O)COC(=O)Cc2c[nH]c3ccccc23)C1 (centres undefined)", "solubility kinetic": "> 47.2 µg/mL"}

Sample O=C(O)CSc1ncnc2scc(-c3ccccc3)c12 — what was its solubility kinetic?
> 45.4 µg/mL

* * *

Listing of entries alongside the reported solubility kinetic.
test parameters: buffer; pH 7.4; 200.0 µM

For orientation, consider the following solved cases.
{"compound": "CC1CCC(C(C)C)C(OCC(O)CNC(C)(C)C)C1.Cl (stereo not drawn)", "observable": "solubility kinetic", "result": "> 48.3 µg/mL"}
{"compound": "Cc1ccc(S(=O)(=O)N2CCOCC2)cc1NC(=O)COC(=O)Cc1ccccc1", "observable": "solubility kinetic", "result": "> 64.9 µg/mL"}
{"compound": "CN(c1ccccc1)c1nccc(=O)[nH]1", "observable": "solubility kinetic", "result": "> 30.2 µg/mL"}
{"compound": "O=C(NCCN1CCOCC1)c1cc([N+](=O)[O-])cc([N+](=O)[O-])c1", "observable": "solubility kinetic", "result": "> 48.6 µg/mL"}
{"compound": "Cc1ccc(C(=O)NCCNC(=O)COc2ccccc2Cl)cn1", "observable": "solubility kinetic", "result": "> 52.2 µg/mL"}
{"compound": "CCN(CC)S(=O)(=O)c1ccc(NC(=O)c2ccc(N3CCCC3=O)cc2)cc1", "observable": "solubility kinetic", "result": "5 µg/mL"}
{"compound": "COc1ccc(C2CC(=O)C(C=NCCO)=C(O)C2)cc1 (stereo not drawn)", "observable": "solubility kinetic", "result": "38 µg/mL"}
{"compound": "CCN(CC(=O)Nc1c(F)cccc1F)C(=O)CSc1ccc(F)cc1", "observable": "solubility kinetic", "result": "> 57.4 µg/mL"}

Name the recorded solubility kinetic for Nc1[nH]c(=O)nc(Nc2ccccc2)c1N=O .
> 34.7 µg/mL

Can you look up the measured solubility kinetic of COc1ccccc1CC(=O)N1CCN(c2ccccc2F)CC1 for me?
46.8 µg/mL

Recorded solubility kinetic of Cc1cnc(C(=O)OCc2nc3ccccc3o2)cn1 , please.
> 40.4 µg/mL

Suppose we examine the compound CCn1c(=O)c(C(=O)Nc2ccc(C)cc2)c(O)c2ccccc21 ; what solubility kinetic value has been reported?
< 0.3 µg/mL

Which solubility kinetic is reported for this compound? O=C(Nc1ccccc1Br)c1cccc2ccccc12
< 0.7 µg/mL

solubility kinetic lookup needed for Cc1cc(=O)[nH]c(SCC(=O)c2ccc(O)c(O)c2)n1 , thanks.
> 43.8 µg/mL

* * *

Recorded solubility kinetic, one value per entry.
test parameters: buffer; pH 7.4; 200.0 µM

Look over these answered cases.
{"molecule": "CC(NC(=O)C1CC1)C(c1cccs1)N1CCOCC1 (configuration not stated)", "observable": "solubility kinetic", "result": "> 44.2 µg/mL"}
{"molecule": "O=C(CCl)c1cc2c3c(c1)CC(=O)N3CCC2", "observable": "solubility kinetic", "result": "> 37.5 µg/mL"}
{"molecule": "CN(C)/C(=N\\O)c1c(Cl)cccc1Cl", "observable": "solubility kinetic", "result": "> 35 µg/mL"}
{"molecule": "CCOc1ccc(NC(=O)C(C)Sc2nccn2C)cc1 (configuration not stated)", "observable": "solubility kinetic", "result": "> 45.8 µg/mL"}
{"molecule": "Cc1cccc(NC(=O)NCCN2CCCCC2)c1", "observable": "solubility kinetic", "result": "> 39.2 µg/mL"}

Entry Cc1cccc(NC(=O)c2cccnc2Cl)n1 has what solubility kinetic?
> 37.2 µg/mL

Entry Brc1ccc(COn2ccnc2)cc1 has what solubility kinetic?
> 38 µg/mL

Fill blank: measured solubility kinetic of the molecule N#Cc1ccc(COC(=O)c2cccnc2Cl)cc1 is ____.
26.9 µg/mL

Record request: solubility kinetic value, item Cc1ccccc1OC(C)C(=O)Nc1cccnc1 (configuration not stated)
36.6 µg/mL

Give its solubility kinetic value. Item: CCOc1ncccc1C(=O)Nc1cc2c(cc1Br)OCCO2
6.5 µg/mL

* * *

Recorded solubility kinetic, one value per entry.
test parameters: buffer; pH 7.4; 200.0 µM
Just the number please, in µg/mL, no unit attached.

{"molecular string": "CCOC(=O)/C(C(=Nc1ccccc1)Nc1ccccc1)=C(\\C)O", "solubility kinetic [µg/mL]": 29.5}

Proceed to the following item.
Return reported solubility kinetic; argument: CCc1ccc(NC(=S)NCc2cccnc2)cc1
36.9

* * *

test parameters: buffer; pH 7.4; 200.0 µM
observable: solubility kinetic

These recorded examples may help you get a feel for the data.
{"molecule": "CC1NCCC2(O)CCCCC12 (centres undefined)", "result": "> 0.0254 mg/mL"}
{"molecule": "Fc1ccccc1-c1nc2nc3ccccc3nc2n1CC1CCCO1 (centres undefined)", "result": "> 0.0523 mg/mL"}

solubility kinetic for O=C(O)CCC(=NNC(=O)c1cccc(S(=O)(=O)N2CCCCC2)c1)c1ccccc1 ?
> 0.0665 mg/mL

For the molecule CN(C)/C=C/C(=O)c1ccc(Cl)s1 , what solubility kinetic is on record?
> 0.0324 mg/mL

* * *

test parameters: buffer; pH 7.4; 200.0 µM
observable: solubility kinetic

{"compound": "Br.CN1CCN(C(=O)Cc2ccccc2)CC1", "solubility kinetic": "> 44.9 µg/mL"}
{"compound": "COCCN1CCn2c(nc3cc([N+](=O)[O-])ccc32)C1", "solubility kinetic": "> 41.4 µg/mL"}
{"compound": "COc1ccc(Nc2nc(C)cc(C)n2)cc1Cl.Cl", "solubility kinetic": "> 45 µg/mL"}
{"compound": "O=C(O)c1cccnc1Sc1ccc(Br)cc1", "solubility kinetic": "> 46.5 µg/mL"}
{"compound": "c1ccc(CSc2nc3ncccn3n2)cc1", "solubility kinetic": "> 36.3 µg/mL"}

solubility kinetic for CCOC(=O)c1cn(CC)c2cc(F)c(F)cc2c1=O ?
> 42.2 µg/mL

Item under review: Br.COC(=O)CN1C2=NCCCN2c2ccccc21 . Reported solubility kinetic?
> 48.9 µg/mL

Could you share which solubility kinetic value was measured for COc1cc(C(=O)NC(c2ccccc2)c2ccccc2)cc(OC)c1C ?
< 0.8 µg/mL

What value of solubility kinetic has been recorded for this entry: O=C(NCCc1ccccc1)c1ccc2c(c1)OCCO2
> 42.5 µg/mL

Give its solubility kinetic value. Item: O=C(CCNS(=O)(=O)c1ccc(F)c(F)c1)NCCN1CCOCC1
> 56.6 µg/mL

Name the reported solubility kinetic value associated with the compound CCOC(=O)C1=C(O)CSC1=Nc1ccc(C)cc1
> 41.6 µg/mL

Endpoint output: solubility kinetic of COc1ccccc1CNC(=O)COC(=O)c1ccc(Cl)nc1 . Value?
> 50.2 µg/mL

Give the measured solubility kinetic of CCOc1cc(N2CCOCC2)c(OCC)cc1NC(=O)COC(=O)C1CCCN1S(=O)(=O)c1ccccc1F (stereo unspecified) .
84.7 µg/mL
